Experiment: Km value of Ac-YVAD-AMC substrate for compound
Type: ADME
Peptide text beside a SMILES is read from it. * marks the point of attachment. AMC = Cc1cc(=O)oc2cc(N*)ccc12
Result type: Km
# answer = value followed by unit

Short answer for CC(=O)NCC(=O)NCC(=O)N[C@@H](C)C(=O)N[C@@H](CC(=O)O)C(=O)Nc1ccc2c(C)cc(=O)oc2c1 (Ac-GGAD-{AMC}) : Km was 20 µM

====

Assay: Kinetic Constant of Ac-WEAD-AMC for compound
Assay type: ADME
Peptide text beside a SMILES is read from it. * marks the point of attachment. AMC = Cc1cc(=O)oc2cc(N*)ccc12
Result type: Km (µM)
Answer format: numeric, µM implied, no suffix.

In plain terms, CC(=O)NCC(=O)NCC(=O)N[C@@H](C)C(=O)N[C@@H](CC(=O)O)C(=O)Nc1ccc2c(C)cc(=O)oc2c1 (Ac-GGAD-{AMC}) has a documented Km of 9
